- measured_target: hT1R2/T1R3 taste receptor (Homo sapiens, UniProt Q7RTX0+Q8TE23)
- Sequence (Q8TE23 20-839): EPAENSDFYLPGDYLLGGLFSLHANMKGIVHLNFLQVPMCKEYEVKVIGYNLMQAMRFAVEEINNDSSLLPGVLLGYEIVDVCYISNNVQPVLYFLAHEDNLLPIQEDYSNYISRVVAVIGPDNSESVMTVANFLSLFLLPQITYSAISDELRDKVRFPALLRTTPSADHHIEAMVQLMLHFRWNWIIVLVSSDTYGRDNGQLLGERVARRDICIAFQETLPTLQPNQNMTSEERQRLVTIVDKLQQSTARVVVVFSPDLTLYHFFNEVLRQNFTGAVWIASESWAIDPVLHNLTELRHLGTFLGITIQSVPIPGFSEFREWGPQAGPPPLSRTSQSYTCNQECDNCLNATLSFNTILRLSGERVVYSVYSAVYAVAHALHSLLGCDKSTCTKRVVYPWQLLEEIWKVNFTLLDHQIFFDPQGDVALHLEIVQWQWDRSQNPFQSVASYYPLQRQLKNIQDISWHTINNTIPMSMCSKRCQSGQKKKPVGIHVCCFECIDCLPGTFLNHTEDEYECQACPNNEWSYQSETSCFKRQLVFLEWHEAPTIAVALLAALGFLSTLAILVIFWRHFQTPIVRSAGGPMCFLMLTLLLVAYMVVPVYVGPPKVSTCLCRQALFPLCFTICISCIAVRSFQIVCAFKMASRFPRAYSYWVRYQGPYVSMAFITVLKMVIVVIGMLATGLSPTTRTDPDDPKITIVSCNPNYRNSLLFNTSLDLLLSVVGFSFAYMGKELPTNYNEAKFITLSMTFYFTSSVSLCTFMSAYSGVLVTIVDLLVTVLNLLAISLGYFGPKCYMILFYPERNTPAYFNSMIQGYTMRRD
- Sequence (Q7RTX0 21-852): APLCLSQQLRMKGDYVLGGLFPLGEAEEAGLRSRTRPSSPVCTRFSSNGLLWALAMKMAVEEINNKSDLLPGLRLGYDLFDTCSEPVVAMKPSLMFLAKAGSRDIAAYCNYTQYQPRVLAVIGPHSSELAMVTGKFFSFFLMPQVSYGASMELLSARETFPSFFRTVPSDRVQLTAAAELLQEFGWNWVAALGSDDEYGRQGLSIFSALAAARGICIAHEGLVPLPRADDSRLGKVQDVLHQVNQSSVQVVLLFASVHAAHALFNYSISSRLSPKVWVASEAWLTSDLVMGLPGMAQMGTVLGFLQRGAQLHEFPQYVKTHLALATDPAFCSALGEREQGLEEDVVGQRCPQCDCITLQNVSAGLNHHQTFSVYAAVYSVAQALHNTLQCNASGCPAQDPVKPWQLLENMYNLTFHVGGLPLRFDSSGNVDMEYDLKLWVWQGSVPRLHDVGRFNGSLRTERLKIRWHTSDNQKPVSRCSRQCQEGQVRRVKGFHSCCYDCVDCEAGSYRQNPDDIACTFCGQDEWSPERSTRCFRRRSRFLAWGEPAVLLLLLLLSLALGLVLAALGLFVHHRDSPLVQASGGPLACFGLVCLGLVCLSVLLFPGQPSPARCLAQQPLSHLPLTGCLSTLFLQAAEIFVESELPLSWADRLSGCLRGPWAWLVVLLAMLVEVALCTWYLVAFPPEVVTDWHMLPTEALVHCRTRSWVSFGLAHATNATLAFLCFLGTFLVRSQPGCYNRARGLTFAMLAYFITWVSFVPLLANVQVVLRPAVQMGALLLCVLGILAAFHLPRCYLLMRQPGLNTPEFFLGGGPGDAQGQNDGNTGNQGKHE
- assay_details: agonist activity against the hT1R2/T1R3 taste receptor (sweet receptor based assay)
- Type: cell-based
- test_settings: agonist activity, hT1R2/T1R3; read-out: Sweet EC50
Listing: EC50 of selected molecules

Some molecules with recorded EC50:
INSERT INTO measurements (molecule, property, observed_result) VALUES
  ('Cc1cccc(N2CCN(C(C)(C)C(=O)NCC(C)C)CC2)c1', 'EC50', '> 10 µM'),
  ('Cc1cccc(N2CCN(C(C)(C)C(=O)NCCC(C)C)CC2)c1C', 'EC50', '8 µM'),
  ('Cc1ncccc1C1=CCN(C(C)(C)C(=O)NCC(C)C)CC1', 'EC50', '> 10 µM'),
  ('Cc1ccc(C)c(N2CCN(C(C)(C)C(=O)NCC(C)C)CC2)c1', 'EC50', '> 10 µM'),
  ('CC(C)(C(=O)NC1CC1)N1CCN(c2cccc(F)c2F)CC1', 'EC50', '3.9 µM'),
  ('COCc1ccc(C2=CCN(C(C)(C)C(=O)NCC(C)C)CC2)c(F)c1', 'EC50', '> 10 µM'),
  ('Cc1cccc(N2CCN(C(C)(C)C(=O)NCC3CCCCC3)CC2)c1C', 'EC50', '> 10 µM'),
  ('Cc1cccc(N2CCN(C(C)C(=O)NCC(C)C)CC2)c1C (stereo not shown) [Compound 11]', 'EC50', '1.4 µM'),
  ('COCc1ccc(C2CCN(C(C)(C)C(=O)NCC(C)C)CC2)c(F)c1', 'EC50', '> 10 µM'),
  ('CC(C)CNC(=O)C(C)N1CCC(c2ccccc2)CC1 (stereo not shown)', 'EC50', '4.7 µM');

get_value(item= "CC(C)CNC(=O)C(C)(C)N1CC=C(c2ccccc2N(C)C)CC1" , readout=EC50) returns > 10 µM

get_value(item= "CC(C)CNC(=O)C(C)(C)N1CCN(c2c(F)cccc2F)CC1" , readout=EC50) returns > 10 µM

get_value(item= "Cc1cccc(C2CCN(C(C)(C)C(=O)NCC(C)C)CC2)n1" , readout=EC50) returns 5.1 µM

get_value(item= "CC(C)CNC(=O)C(C)(C)N1CCC(c2ccccc2)CC1" , readout=EC50) returns 0.7 µM

get_value(item= "Cc1cccc(C2=CCN(C(C)(C)C(=O)NCC(C)C)CC2)n1" , readout=EC50) returns > 10 µM
